Tested on: NCI-H460
Assay: NCI tumour cell line growth inhibition, 48 h
Active and inactive are the calls of the source. Rule as the data show it: active = GI50 up to about 1.1 µM and inactive = higher.
Return exactly one item of yes (1) = active, no (0) = inactive

[[record]]
molecule = "CCOC(=O)CSc1nc(N)c2c(-c3ccc(OC)c(OC)c3)c3c(nc2n1)CCCC3"
label = "no (0)"

[[record]]
molecule = "CN(C)c1ccc(/N=N/c2ccc3[nH]cnc3c2)cc1"
label = "no (0)"

[[record]]
molecule = "c1ccc2c(c1)ccn1ccc3c4ccccc4nc-3c21"
label = "yes (1)"


Attention now turns to another entry.
Enquiry: Just curious, what result did CC(C)N(C(=O)C12C3C4C1C1C2C3C41C(=O)O)C(C)C (stereo not drawn) get here?
Return: no (0)

----------
// reported GI50 for each item listed
Test system: BT-549
Assay: NCI tumour cell line growth inhibition, 48 h
The source made the active and inactive calls. Cut-off read from the data, not from the text of the source: active = GI50 up to about 1.1 µM and inactive = higher.

Enquiry: Find the recorded GI50 belonging to C[S+](C)C1(c2ccccc2)C(=O)c2ccccc2C1=O and report it.
Return: 11.8 µM (inactive)

Enquiry: Any idea what its GI50 is? The compound is CC(=O)N(C)CCc1c[nH]c2ccccc12
Return: > 100 µM (inactive)

Enquiry: Value lookup for GI50; key = CSC12c3cc(C)n(-c4ccc([N+](=O)[O-])cc4)c3CC(C)(C)CN1C(=O)C2Oc1ccccc1 (stereo unspecified)
Return: > 100 µM (inactive)

----------
Overview of recorded GI50 for various compounds
Test system: NCI-H522
Assay: NCI tumour cell line growth inhibition, 48 h
The source made the active and inactive calls. Cut-off read from the data, not from the text of the source: active = GI50 up to about 1.1 µM and inactive = higher.

Some compounds with recorded GI50:
[[record]]
compound = "CCOC(=O)c1nc2ccccc2nc1Oc1cc(OC)cc(OC)c1"
result_value = "46.7 µM (inactive)"

[[record]]
compound = "c1ccc2c(c1)OCCc1cn[nH]c1-2"
result_value = "> 100 µM (inactive)"

[[record]]
compound = "CCCCNc1c(CN)cnc2cc(Cl)ccc12"
result_value = "18.8 µM (inactive)"


Next up:
Enquiry: Name the recorded GI50 for COc1ccccc1C1(C)SCc2nc3ccccc3n21 (stereo unspecified) .
Return: > 10 µM (inactive)

----------
System: U-251
Assay: NCI tumour cell line growth inhibition, 48 h
Calls of active or inactive are those of the source. No stated cut-off is given here; in the data, active = GI50 up to about 1.1 µM and inactive = higher.
MEASURED ATTRIBUTE: GI50

[[record]]
compound = "CCOC(=O)Nc1cc2nnc(-c3ccccc3)nc2c(N)n1"
result_value = "30.5 µM (inactive)"

[[record]]
compound = "C[C@]12CC[C@@H]3c4ccc(O)cc4CC[C@H]3[C@@H]1C/C(=C\\c1ccc(C#N)cc1)C2=O"
result_value = "24.7 µM (inactive)"

[[record]]
compound = "CC(C)[C@@H](COC(C)(C)C)/N=C/N1CCc2c([nH]c3ccccc23)C1"
result_value = "> 100 µM (inactive)"

[[record]]
compound = "Cc1ccc(S(=O)(=O)N2CCC(C(=O)O)(c3ccccc3)CC2)cc1"
result_value = "> 100 µM (inactive)"


Enquiry: Param readout = GI50; param system = U-251; param query = C=C[C@]1(C)CC(=O)C(C(C)C=O)[C@]12C(=O)Oc1cccc(C)c1C2=O (stereo not given in full) ; response: value
Return: 14.6 µM (inactive)

Enquiry: Request - read-out GI50 | tested on U-251 | compound CSc1nc(CO)c(CO)n1C
Return: > 100 µM (inactive)

Enquiry: Fill in the recorded GI50 for this compound, with U-251 as test system: O=C(CC(=O)N(C(=O)/C=C\c1ccccc1)c1ccc(Cl)cc1)N1N=C(c2ccccc2)C(/N=N/c2cccc([N+](=O)[O-])c2)C1=O (stereo not given)
Return: 5.82 µM (inactive)

----------
Test system: SK-MEL-28
Assay: NCI tumour cell line growth inhibition, 48 h
The source made the active and inactive calls. Rule as the data show it: active = GI50 up to about 1.1 µM and inactive = higher.
MEASURED ATTRIBUTE: GI50

Look over these answered cases.
[[record]]
molecule = "N#Cc1ccc(/N=C(/NCC(=O)O)Nc2cccc3ccccc23)cc1"
measured_attribute = "GI50"
result_value = "> 10 µM (inactive)"

[[record]]
molecule = "CC(=O)Oc1cc2c(cc1OC(C)=O)OCC(c1ccccc1)C2 (configuration not stated)"
measured_attribute = "GI50"
result_value = "31 µM (inactive)"

[[record]]
molecule = "CCOc1ccc(NC(=O)C2=C(C)NC(C)=C(C(=O)Nc3ccc(OCC)cc3)C2c2ccccc2)cc1"
measured_attribute = "GI50"
result_value = "> 100 µM (inactive)"

[[record]]
molecule = "CN1CCN(c2ccc3nc(C4=C(O)C(=O)c5c(nc(CO)n5C)C4=O)[nH]c3n2)CC1"
measured_attribute = "GI50"
result_value = "> 100 µM (inactive)"

[[record]]
molecule = "CCCC(=O)Nc1cc(/C=C/C(=O)N2CC(CCl)c3c2cc(OC(C)=O)c2[nH]cc(C)c32)n(C)c1 (configuration not stated)"
measured_attribute = "GI50"
result_value = "4.52e-05 µM (active)"


Enquiry: Reported GI50 for CC1=Nc2ccccc2OC(C)=C1/N=N/c1ccc2[nH]c(C)nc2c1 : what is it?
Return: > 100 µM (inactive)

Enquiry: Param item = c1ccc2c(c1)ccn1ccc3c4ccccc4nc-3c21 ; retrieve measured GI50.
Return: 0.368 µM (active)

Enquiry: # get_value(readout='GI50', item= O=C1C(=Cc2ccco2)C(=O)C2CCCCC12 (configuration not stated) )
Return: > 100 µM (inactive)

Enquiry: Quick check: GI50 of Cc1cnc2[nH]c(-c3cccc(Cl)c3)cc(=O)c2c1 ?
Return: 0.315 µM (active)

Enquiry: Can you look up the measured GI50 of CN(C)CC/C(=N\Nc1ccc(Cl)cc1)c1ccccc1 for me?
Return: 1.52 µM (inactive)

Enquiry: GI50 lookup needed for Cc1cc([N+](=O)[O-])c(C)c2c1[nH]c1ccc(/C(CCC3CCCC3)=N\N)cc12 , thanks.
Return: 16.9 µM (inactive)

Enquiry: Reported GI50, molecule CCOC(=O)C1=NC(c2ccccc2)(c2ccccc2)OC1=C(Cl)Cl : ____
Return: > 100 µM (inactive)

Enquiry: Could you tell me which GI50 is on file for CC1=C(C(=O)Nc2ccccc2C)C(/C=C/c2ccccc2)C(C(=O)Nc2ccccc2C)=C(C)N1 ?
Return: > 100 µM (inactive)

Enquiry: Find the recorded GI50 belonging to COc1cc(O)c2c(=O)c3ccccc3n(C)c2c1 and report it.
Return: > 100 µM (inactive)

Enquiry: Query: GI50; subject: OCC1OC(n2cnc3c(SCc4ccccc4)ncnc32)C(O)C1O (configuration not stated)
Return: > 100 µM (inactive)

----------
System: HCT-116
Assay: NCI tumour cell line growth inhibition, 48 h
Activity calls are given as the source filed them. Rule as the data show it: active = GI50 up to about 1.1 µM and inactive = higher.
MEASURED ATTRIBUTE: GI50

Solved cases (3 shown):
[[record]]
substance_smiles = "NS(=O)(=O)c1ccc(NCc2cnc3ccccc3n2)cc1"
tested_target = "HCT-116"
result_value = "> 100 µM (inactive)"

[[record]]
substance_smiles = "O=C(/C=C\\c1ccc(Cl)c(Cl)c1)c1ccc(Cl)cc1Cl"
tested_target = "HCT-116"
result_value = "9.14 µM (inactive)"

[[record]]
substance_smiles = "CCN(CC)CCC(=O)c1ccc(Cl)c(Cl)c1"
tested_target = "HCT-116"
result_value = "27.5 µM (inactive)"


--- query ---
Enquiry: Give its GI50 value. Item: COC(=O)[C@H](Cc1ccc(OC(C)(C)C)cc1)N[C@H](C)C(=O)N[C@@H](Cc1ccccc1)C(=O)OCc1ccccc1
Return: 35.6 µM (inactive)

----------
System: NCI-H522
Assay: NCI tumour cell line growth inhibition, 48 h
Active and inactive are the calls of the source. Cut-off read from the data, not from the text of the source: active = GI50 up to about 1.1 µM and inactive = higher.
Hi! Could you answer with just one of these? 1 for active, 0 for inactive

[[record]]
compound = "COc1cc(OC)cc(-c2cc(O)c3cc4c(cc3n2)OCO4)c1"
tested_target = "NCI-H522"
label = 1

[[record]]
compound = "CCN1CSC(=S)N(CC)C1"
tested_target = "NCI-H522"
label = 0

[[record]]
compound = "CC1(C)C2CCC1(C)C(OC(=O)/C=C/C(=O)OC1CC3CCC1(C)C3(C)C)C2 (configuration not stated)"
tested_target = "NCI-H522"
label = 0

[[record]]
compound = "O=C(/C=C1\\C[C@H]2C=Nc3ccccc3C(=O)N2C1)NCCCCNC(=O)/C=C1\\C[C@H]2C=Nc3ccccc3C(=O)N2C1"
tested_target = "NCI-H522"
label = 0

[[record]]
compound = "COC(=O)c1ccc(NCc2cc(O)ccc2O)cc1"
tested_target = "NCI-H522"
label = 1


Enquiry: State the result this test recorded for c1ccc2c(c1)ccn1ccc3c4ccccc4nc-3c21 .
Return: 1

Enquiry: What did this assay record as the result for CCOC(=O)c1c(NC(=O)c2ccccc2)c(C#N)c2n1CCCCC2 ?
Return: 0

Enquiry: Please share the test call associated with CSc1nc(NC2OC(CO)C(O)C(O)C2O)c(N)c(=O)[nH]1 (configuration not stated) .
Return: 0

Enquiry: What was the test verdict on CCOC(=O)CN1C(=O)c2ccc(NC(=O)C(=O)O)cc2S1(=O)=O ?
Return: 0

Enquiry: Tell me the assay call for CN(Cc1ccccc1)Cn1ccnc1 please.
Return: 0

Enquiry: Called result for COC(=O)c1cc2ccc(O)c(O)c2cn1
Return: 0

Enquiry: # lookup: test call for O=C(O)CNC(=O)CO/N=C1/C(=C2/C(=O)Nc3ccccc32)Nc2ccccc21
Return: 0

Enquiry: What did this assay record as the result for N/N=C1\C(OC(=O)Nc2cccc(Cl)c2)=Nc2ccccc21 ?
Return: 0

Enquiry: What classification did Nc1nc(CCC(=O)Nc2cccc(C(F)(F)F)c2)cc(-c2cccc3ccccc23)n1 end up with in this test?
Return: 0

Enquiry: So what was the verdict on CC1(C)CC[C@]2(C(=O)O)CC[C@]3(C)C(=CC[C@@H]4[C@@]5(C)C[C@H](O)[C@H](O)[C@@](C)(CO)C5=CC[C@]43C)[C@@H]2C1 in this test?
Return: 0

Enquiry: Could you check what this test reported for Nc1ncnc2c1nnn2C1C=C(CO)C(O)C1O (configuration not stated) ?
Return: 0
